Where these numbers come from: the supplement of paper PMC8728848

- testedTarget: Gal3S(b1-4)[Fuc(a1-3)]GlcNAc6S
- experimentNotes: glycan array binding signal (z-score within array); higher = stronger binding
- testParameters: glycan notation: IUPAC condensed, linker removed
This excerpt belongs to a sample that is enriched for the strongest signals.
metricName: glycan array binding signal (z-score)

1. Gal-9-hFc (Mus musculus), O08573-2 (protein) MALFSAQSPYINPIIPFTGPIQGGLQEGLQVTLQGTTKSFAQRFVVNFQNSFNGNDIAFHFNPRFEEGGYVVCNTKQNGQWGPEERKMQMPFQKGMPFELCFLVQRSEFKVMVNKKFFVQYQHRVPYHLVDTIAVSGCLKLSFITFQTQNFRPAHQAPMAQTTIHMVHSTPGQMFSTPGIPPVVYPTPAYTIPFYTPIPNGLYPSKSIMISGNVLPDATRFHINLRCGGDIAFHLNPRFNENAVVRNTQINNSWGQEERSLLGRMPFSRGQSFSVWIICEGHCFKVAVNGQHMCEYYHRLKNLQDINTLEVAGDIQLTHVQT    3.57
2. Cohesin-hMARCO (Homo sapiens) (protein) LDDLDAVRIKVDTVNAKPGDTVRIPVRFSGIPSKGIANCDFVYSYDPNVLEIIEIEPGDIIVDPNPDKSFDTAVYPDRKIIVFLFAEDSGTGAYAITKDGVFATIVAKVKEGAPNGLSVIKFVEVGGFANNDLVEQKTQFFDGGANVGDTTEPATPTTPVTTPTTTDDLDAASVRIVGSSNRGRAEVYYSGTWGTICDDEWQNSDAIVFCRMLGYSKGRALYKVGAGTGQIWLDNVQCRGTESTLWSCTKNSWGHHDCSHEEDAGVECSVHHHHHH    3.73
3. Cohesin-hDCIR (Homo sapiens) (protein) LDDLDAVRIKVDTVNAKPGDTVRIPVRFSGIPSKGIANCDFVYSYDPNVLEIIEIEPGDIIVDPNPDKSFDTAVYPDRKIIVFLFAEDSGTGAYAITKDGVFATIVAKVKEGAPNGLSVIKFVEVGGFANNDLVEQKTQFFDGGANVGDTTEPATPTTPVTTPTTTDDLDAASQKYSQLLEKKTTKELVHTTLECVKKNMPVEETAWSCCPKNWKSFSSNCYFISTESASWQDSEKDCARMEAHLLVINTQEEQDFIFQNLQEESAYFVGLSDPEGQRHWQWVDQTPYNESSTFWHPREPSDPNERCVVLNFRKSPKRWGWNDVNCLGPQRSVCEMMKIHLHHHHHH    3.25
4. his-Lectin-24A (Drosophila melanogaster) (protein) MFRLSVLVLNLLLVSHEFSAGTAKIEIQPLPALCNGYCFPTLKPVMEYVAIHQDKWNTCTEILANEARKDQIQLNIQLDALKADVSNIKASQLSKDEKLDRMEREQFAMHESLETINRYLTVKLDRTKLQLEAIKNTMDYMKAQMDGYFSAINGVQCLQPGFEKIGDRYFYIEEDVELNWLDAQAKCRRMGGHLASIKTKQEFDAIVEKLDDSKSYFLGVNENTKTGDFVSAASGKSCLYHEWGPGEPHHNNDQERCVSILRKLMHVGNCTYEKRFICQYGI    0.382
5. Arath Fbox (Arabidopsis thaliana), NP_178341.1 (protein) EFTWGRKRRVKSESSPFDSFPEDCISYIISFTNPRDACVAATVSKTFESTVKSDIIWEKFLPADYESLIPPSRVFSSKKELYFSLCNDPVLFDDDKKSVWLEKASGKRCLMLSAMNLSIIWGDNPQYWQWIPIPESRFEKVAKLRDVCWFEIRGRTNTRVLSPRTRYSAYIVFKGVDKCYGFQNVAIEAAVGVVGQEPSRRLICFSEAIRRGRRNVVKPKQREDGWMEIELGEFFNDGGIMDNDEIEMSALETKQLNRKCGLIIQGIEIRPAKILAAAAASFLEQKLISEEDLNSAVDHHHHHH    2.7
6. PhypaEULS3 (Physcomitrella patens) (protein) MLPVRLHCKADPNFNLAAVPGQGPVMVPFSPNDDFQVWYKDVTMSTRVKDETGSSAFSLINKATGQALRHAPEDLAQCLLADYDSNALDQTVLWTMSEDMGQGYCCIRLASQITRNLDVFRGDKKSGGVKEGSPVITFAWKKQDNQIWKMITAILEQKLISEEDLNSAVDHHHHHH    2.66
7. Threefoil (Haloarcula marismortui) (protein) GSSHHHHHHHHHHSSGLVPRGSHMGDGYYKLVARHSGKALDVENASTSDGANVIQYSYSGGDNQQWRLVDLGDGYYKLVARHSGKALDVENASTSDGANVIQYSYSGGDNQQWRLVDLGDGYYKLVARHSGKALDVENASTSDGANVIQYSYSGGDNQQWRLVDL    -0.038
8. MAA (Maackia amurensis), P0DKL3 (protein) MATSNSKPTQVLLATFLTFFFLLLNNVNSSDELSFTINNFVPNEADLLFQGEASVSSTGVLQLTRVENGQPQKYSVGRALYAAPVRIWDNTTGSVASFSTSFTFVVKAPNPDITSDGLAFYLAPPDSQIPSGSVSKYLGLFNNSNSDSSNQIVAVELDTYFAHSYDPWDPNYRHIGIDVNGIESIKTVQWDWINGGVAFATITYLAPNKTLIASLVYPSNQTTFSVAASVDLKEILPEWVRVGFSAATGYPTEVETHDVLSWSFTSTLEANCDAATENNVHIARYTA    7.75
9. LTL (Lotus tetragonolobus), P19664 (protein) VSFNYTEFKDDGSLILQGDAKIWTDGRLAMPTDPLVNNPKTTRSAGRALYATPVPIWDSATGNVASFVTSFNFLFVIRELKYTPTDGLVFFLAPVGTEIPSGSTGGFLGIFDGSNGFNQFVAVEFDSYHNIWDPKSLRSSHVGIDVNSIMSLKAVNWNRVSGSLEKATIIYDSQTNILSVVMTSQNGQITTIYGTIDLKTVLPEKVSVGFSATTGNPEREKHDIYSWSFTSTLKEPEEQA    -0.287
